experiment: physchem; details: buffer
Let's look at some compounds and their measured log10 of solubility thermodynamic.
reported metric: log10 of solubility thermodynamic (log10 of the value in µM)

[[record]]
compound = "CCOC(=O)c1cc(C#N)c(N2CCC(C(=O)NS(=O)(=O)Cc3ccccc3)CC2)nc1C"
test_result = 0.48

[[record]]
compound = "CC(C(=O)NC1=CC(C2CC2)=CC1)c1ccc(N2CCCC2=O)cc1 (centres undefined)"
test_result = 2.40

[[record]]
compound = "COc1ccc2c(=O)cc(-c3cnn(Cc4ccc(OC(F)(F)F)cc4)c3)[nH]c2c1"
test_result = -0.52

[[record]]
compound = "CC(C)(C)OC(=O)N1CCN(c2ncc(OCc3ccncc3C#N)cn2)CC1"
test_result = 1.38

[[record]]
compound = "CCc1cnc(N2CCC(n3ncc4ccc(-c5ccc(S(C)(=O)=O)cc5F)nc43)CC2)cn1"
test_result = -0.15

[[record]]
compound = "NC(=O)NCCSc1nc(N)nc(-c2c(Cl)cc3c4c(cccc24)COC3)n1"
test_result = 2.89

[[record]]
compound = "Nc1ncc(-c2ccc(C(=O)N3CC(O)C3)cc2)nc1-c1ccc(C(F)(F)F)nc1"
test_result = 1.74

[[record]]
compound = "COc1cc2[nH]c(C)c(-c3ccccc3)c(=O)c2cc1Cl"
test_result = 0.78

